Source of measurements: paper PMC11401973

# experimentalSystem: UniProtKB Q9H7B4
# Sequence (Q9H7B4 whole entry): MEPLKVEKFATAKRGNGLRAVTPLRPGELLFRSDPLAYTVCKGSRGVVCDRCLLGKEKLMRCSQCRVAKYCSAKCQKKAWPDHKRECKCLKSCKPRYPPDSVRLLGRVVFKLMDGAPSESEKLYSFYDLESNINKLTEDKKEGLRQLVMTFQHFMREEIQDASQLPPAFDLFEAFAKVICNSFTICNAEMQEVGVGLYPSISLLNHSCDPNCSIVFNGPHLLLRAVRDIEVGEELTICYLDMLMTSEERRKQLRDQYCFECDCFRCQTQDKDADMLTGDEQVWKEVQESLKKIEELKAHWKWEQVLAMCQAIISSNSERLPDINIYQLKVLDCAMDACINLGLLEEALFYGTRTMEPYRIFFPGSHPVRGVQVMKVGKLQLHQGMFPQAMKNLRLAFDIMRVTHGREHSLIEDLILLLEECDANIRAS
measureName: pKd
Field pKd (float): negative decimal logarithm of the concentration in molar.

## Input Quick one: pKd of COc1ccc(/N=C2/c3ccccc3/C(=N/c3ccc(OC)cc3)C2(C)C)cc1 ?
## Output 4.11

---

# Tested on: LO2 cells
# assayProtocol: MTT cell viability, normal liver cells
# Type: cell-based, human
# runConditions: Homo sapiens, L02; LO2 normal liver cells, MTT, 24 h
measureName: IC50 (µM)
Express the result in µM but write the number alone.

## Input Quick one: IC50 of COc1ccc(/N=C2/c3ccccc3/C(=N/c3ccc(OC)cc3)C2(C)C)cc1 ?
## Output 26.7

---

# Tested on: MDA-MB-231 cells
# assayProtocol: MTT cell viability
# Format: cell-based
# runConditions: Homo sapiens; MDA-MB-231, MTT, 24 h
# Procedure: The cytotoxicity of ZYZ384 was determined across several different cancer cell lines. 3‐(4,5‐Dimethylthiazol‐2‐yl)‐2,5‐diphenyltetrazolium bromide (MTT) assay was used to assess cell viability. […] Cell viability was assessed in several cancer cell lines and determined using the MTT assay in a 96‐well plate format. […] After 24 h of treatment, cell viability was determined by adding 1 mg/mL MTT‐containing medium for 4 h, followed by […] Dimethyl sulfoxide (DMSO) to dissolve formazan. […]
measureName: IC50 (µM)
Express the result in µM but write the number alone.

## Input Quick one: IC50 of COc1ccc(/N=C2/c3ccccc3/C(=N/c3ccc(OC)cc3)C2(C)C)cc1 [ZYZ384] ?
## Output 7.28

---

# System: HepG2 cells
# assayProtocol: MTT cell viability
# Format: cell-based
# runConditions: Homo sapiens, 24 h
measureName: IC50
Remember to quote the unit after the number.

## Input Quick one: IC50 of COc1ccc(/N=C2/c3ccccc3/C(=N/c3ccc(OC)cc3)C2(C)C)cc1 [ZYZ384] ?
## Output 5.23 µM
